Kindly state Kd for each of the entries shown.
testedOn: FGFR4 (Homo sapiens, UniProt P22455)
Sequence (P22455 22-802): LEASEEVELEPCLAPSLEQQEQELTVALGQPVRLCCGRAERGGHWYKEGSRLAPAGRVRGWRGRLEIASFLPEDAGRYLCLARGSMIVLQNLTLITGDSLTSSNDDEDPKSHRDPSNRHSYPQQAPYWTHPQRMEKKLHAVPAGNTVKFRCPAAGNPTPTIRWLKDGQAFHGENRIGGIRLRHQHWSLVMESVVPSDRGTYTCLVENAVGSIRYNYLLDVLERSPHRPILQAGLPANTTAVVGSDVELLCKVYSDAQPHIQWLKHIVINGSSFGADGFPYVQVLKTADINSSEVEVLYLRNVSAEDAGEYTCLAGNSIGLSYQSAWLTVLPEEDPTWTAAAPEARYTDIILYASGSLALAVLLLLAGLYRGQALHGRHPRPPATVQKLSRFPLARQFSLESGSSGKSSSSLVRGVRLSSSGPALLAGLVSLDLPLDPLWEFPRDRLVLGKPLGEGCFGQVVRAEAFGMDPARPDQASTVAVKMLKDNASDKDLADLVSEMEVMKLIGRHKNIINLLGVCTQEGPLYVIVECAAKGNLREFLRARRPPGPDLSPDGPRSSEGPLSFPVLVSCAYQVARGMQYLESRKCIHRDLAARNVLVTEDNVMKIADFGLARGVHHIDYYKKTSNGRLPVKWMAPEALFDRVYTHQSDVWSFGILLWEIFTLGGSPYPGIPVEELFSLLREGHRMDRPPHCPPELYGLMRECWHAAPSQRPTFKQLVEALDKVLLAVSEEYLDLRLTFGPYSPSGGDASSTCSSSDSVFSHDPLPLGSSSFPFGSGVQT
Use nM as the unit, but write only the number.

Ask | Fill in the blank: the reported Kd of COc1cc(OC)c(Cl)c(N2CCN(C(C)C)Cc3c2ccc2ncc(-c4cnn(C)c4)nc32)c1 is ____.
Reply | 27.5

Ask | Follow-up entry: COc1cc(O)cc(N2CCN(C(C)C)Cc3c2ccc2ncc(-c4cnn(C)c4)nc32)c1F
Reply | 60.3

Ask | Follow-up entry: COc1cc(OC)c(F)c(N2CCN(C(C)C)Cc3c2ccc2ncc(-c4cnn(C)c4)nc32)c1
Reply | 11

Ask | Follow-up entry: COc1cc(OC)c(F)c(N2CCN(C(C)C)Cc3c2ccc2ncc(-c4cn[nH]c4)cc32)c1
Reply | 18.2

###

testedOn: FGFR2 (Homo sapiens)
Construct: purchased DiscoveRx Corporation (assay service)
Sequence (P21802 22-821): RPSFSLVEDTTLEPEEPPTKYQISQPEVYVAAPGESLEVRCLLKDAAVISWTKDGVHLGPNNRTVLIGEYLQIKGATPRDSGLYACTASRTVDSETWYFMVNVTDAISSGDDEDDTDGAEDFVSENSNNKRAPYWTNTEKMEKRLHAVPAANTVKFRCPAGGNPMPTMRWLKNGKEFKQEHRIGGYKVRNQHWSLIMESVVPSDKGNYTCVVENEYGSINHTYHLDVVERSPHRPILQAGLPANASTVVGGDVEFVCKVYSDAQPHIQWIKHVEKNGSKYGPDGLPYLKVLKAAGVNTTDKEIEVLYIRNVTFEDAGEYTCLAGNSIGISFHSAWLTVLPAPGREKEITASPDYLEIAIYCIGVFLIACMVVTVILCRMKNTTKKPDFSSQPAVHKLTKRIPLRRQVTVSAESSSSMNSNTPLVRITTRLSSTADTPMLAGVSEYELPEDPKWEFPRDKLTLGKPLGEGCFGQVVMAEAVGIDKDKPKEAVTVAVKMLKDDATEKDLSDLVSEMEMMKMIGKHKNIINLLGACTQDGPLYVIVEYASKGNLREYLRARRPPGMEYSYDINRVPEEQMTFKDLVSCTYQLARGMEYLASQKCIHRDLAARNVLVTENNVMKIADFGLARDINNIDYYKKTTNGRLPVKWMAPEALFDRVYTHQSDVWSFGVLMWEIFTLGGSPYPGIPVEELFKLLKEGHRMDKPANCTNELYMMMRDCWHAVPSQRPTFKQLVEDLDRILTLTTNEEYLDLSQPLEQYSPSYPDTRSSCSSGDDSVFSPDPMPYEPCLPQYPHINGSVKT
protocolNotes: KINOMEscan enzyme binding assay FGFR2
statedConditions: KINOMEscan (DiscoveRx); pKd = -log Kd, Kd in M
pKd: −log10 of the molar value.
reportedMetric: pKd

Ask | Fill in the blank: the reported pKd of CC(C)N1CCN(c2cc(O)cc(O)c2F)c2ccc3ncc(-c4cnn(C)c4)nc3c2C1 [Compound 9] is ____.
Reply | < 5.52

###

testedOn: FGFR3 (Homo sapiens)
Sequence (P22607 23-806): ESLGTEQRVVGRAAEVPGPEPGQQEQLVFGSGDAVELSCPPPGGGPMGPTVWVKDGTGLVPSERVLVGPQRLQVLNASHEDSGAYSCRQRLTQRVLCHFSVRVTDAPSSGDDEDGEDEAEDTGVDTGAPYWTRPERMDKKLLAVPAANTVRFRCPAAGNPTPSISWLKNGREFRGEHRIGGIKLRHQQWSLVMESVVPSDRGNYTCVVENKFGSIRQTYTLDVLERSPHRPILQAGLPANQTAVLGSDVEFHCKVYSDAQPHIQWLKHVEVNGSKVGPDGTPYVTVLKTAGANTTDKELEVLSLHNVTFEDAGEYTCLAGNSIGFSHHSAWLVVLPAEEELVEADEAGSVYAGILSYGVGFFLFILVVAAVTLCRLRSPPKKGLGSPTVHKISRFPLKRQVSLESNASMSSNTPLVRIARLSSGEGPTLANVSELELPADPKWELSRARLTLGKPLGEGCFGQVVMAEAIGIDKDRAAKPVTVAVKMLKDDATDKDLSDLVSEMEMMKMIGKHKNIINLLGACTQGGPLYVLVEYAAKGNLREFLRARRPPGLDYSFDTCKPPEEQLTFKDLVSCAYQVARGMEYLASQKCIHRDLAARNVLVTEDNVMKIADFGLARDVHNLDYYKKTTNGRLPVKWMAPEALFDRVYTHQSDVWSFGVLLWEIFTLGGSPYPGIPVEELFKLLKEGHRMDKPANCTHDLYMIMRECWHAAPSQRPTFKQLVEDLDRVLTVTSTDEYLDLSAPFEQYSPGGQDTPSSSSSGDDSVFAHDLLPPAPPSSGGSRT
Kindly state Kd for each of the entries shown.
Use nM as the unit, but write only the number.

Ask | Fill in the blank: the reported Kd of COc1cc(O)cc(N2CCN(C(C)C)Cc3c2ccc2ncc(-c4cnn(C)c4)nc32)c1F is ____.
Reply | 8.91

Ask | Follow-up entry: COc1cc(OC)c(F)c(N2CCN(C(C)C)Cc3c2ccc2ncc(-c4cn[nH]c4)cc32)c1
Reply | 7.94

Ask | Follow-up entry: COc1cc(OC)c(F)c(N2CCN(C(C)C)Cc3c2ccc2ncc(-c4cnn(C)c4)nc32)c1
Reply | 2.4

Ask | Follow-up entry: COc1cc(OC)c(F)c(N2CCN(C(C)C)Cc3c2ccc2ncc(-c4cnn(C)c4)cc32)c1F
Reply | 10.7

###

Observed Kd for VEGFR2 (Homo sapiens), reported per entry below.
Use nM as the unit, but write only the number.

Ask | Fill in the recorded Kd for this compound, with VEGFR2 (Homo sapiens) as test system: COc1cc(OC)c(Cl)c(N2CCN(C(C)C)Cc3c2ccc2ncc(-c4cnn(C)c4)nc32)c1
Reply | 58.9

Ask | Follow-up entry: COc1cc(OC)c(Cl)c(N2CCN(C(C)C)Cc3c2ccc2ncc(-c4cnn(C)c4)nc32)c1Cl
Reply | 263

Ask | Follow-up entry: COc1cc(OC)c(F)c(N2CCN(C(C)C)Cc3c2ccc2ncc(-c4cnn(C)c4)cc32)c1
Reply | 93.3

Ask | Follow-up entry: COc1cc(OC)c(F)c(N2CCN(C(C)C)Cc3c2ccc2ncc(-c4cnn(C)c4)cc32)c1F
Reply | 115
